system: U87 cells; assay: LD50 of stressors on the cells over a 24-hr incubation; type: cell-based, human
Known LD50 of a selection of molecules
Provide a numeric answer, followed by its unit.

molecule: O=NN(CCCl)C(=O)NCCCl
value observed: 2.5 µM

For Cn1nnc2c(C(N)=O)ncn2c1=O [Temozolomide] , what is its reported LD50?
25 µM

For "C[n+]1ccc(-c2cc[n+](C)cc2)cc1" , what is its reported LD50?
300 µM

For OO [H2O2, hydrogen peroxide] , what is its reported LD50?
1000 µM
